Values were extracted from ChEMBL document CHEMBL1201862.

Test system: HT-29
Assay: NCI tumour cell line growth inhibition, 48 h
Activity calls are given as the source filed them. Rule as the data show it: active = GI50 up to about 1.1 µM and inactive = higher.
Parameter: GI50. Scope: all listed entries.

Solved cases below.
>>> measvalue("Cc1cc(CS(=O)(=O)/C=C/c2ccccc2[N+](=O)[O-])c(CS(=O)(=O)/C=C/c2ccccc2[N+](=O)[O-])cc1C")
"> 61.7 µM (inactive)"
>>> measvalue("CSC(SC)=C1CC(=O)Nc2ccccc2C1=O")
"> 100 µM (inactive)"
>>> measvalue("COc1ccccc1NC1Oc2cc3c(cc2C(c2cc(OC)c(OC)c(OC)c2)C1C)OCO3 (centres undefined)")
"2.11 µM (inactive)"
>>> measvalue("COC1OC(CBr)C(OC(c2ccccc2)(c2ccccc2)c2ccccc2)C(OC(c2ccccc2)(c2ccccc2)c2ccccc2)C1OC(c1ccccc1)(c1ccccc1)c1ccccc1 (centres undefined)")
"96.6 µM (inactive)"
>>> measvalue("CC(=O)OCC1OC(Nc2nc(O)n(C)c(=O)c2-c2csc(N)n2)C(OC(C)=O)C(OC(C)=O)C1OC(C)=O (centres undefined)")
"> 100 µM (inactive)"

Lookup: Entry under review: CN1C/C(=C\c2cccs2)C2=NC(=S)NC(c3cccs3)C2C1 (centres undefined) . Reported GI50?
Found: 68.7 µM (inactive)

Lookup: Request: "CN(C)CCCN1c2ccccc2CCc2cccc([N+](=O)[O-])c21"
Found: 14.6 µM (inactive)

Lookup: Now try "CCN(CC)/C(=C\Cl)Nc1ccccn1.[O-][Cl+3]([O-])([O-])O" .
Found: > 100 µM (inactive)

Lookup: Cool, now "CCOC(=O)/C(=C/c1ccccn1)C(=O)c1ccccc1"
Found: 13.9 µM (inactive)

* * *

System: COLO 205
Assay: NCI tumour cell line growth inhibition, 48 h
Calls of active or inactive are those of the source. Rule as the data show it: active = GI50 up to about 1.1 µM and inactive = higher.
outcomeMeasure: GI50

Solved cases below.
>>> measvalue("COC(=O)C1Cc2c([nH]c3ccccc23)-c2[nH]c3ccccc3c2CC(NC(C)=O)C(=O)NCC(=O)NCC(=O)N1 (stereo not given)")
"> 100 µM (inactive)"
>>> measvalue("O=C1/C(=N/CCc2cc(Br)c(O)c(Br)c2)C=C(O)c2cccnc21")
"1.75 µM (inactive)"
>>> measvalue("CCC1C2Cc3ccc(O)cc3C1(CC)CCN2C (stereo not given)")
"> 100 µM (inactive)"
>>> measvalue("[O-][S+](Cc1cc2c(cc1Br)OCO2)c1ccccc1 (stereo not given)")
"34.2 µM (inactive)"

# input for lookup
Lookup: Name the reported GI50 value associated with the molecule CC(NC(=O)C(C)C(=O)NCc1ccc(C(F)(F)F)cc1)C(N)=O (stereo not given)
Found: > 100 µM (inactive)

* * *

Parameter GI50: see the listing below.
System: HOP-62
Experiment: NCI tumour cell line growth inhibition, 48 h
Active and inactive are the calls of the source. No stated cut-off is given here; in the data, active = GI50 up to about 1.1 µM and inactive = higher.

>>> measvalue("Cc1c(-c2ccccc2)[nH]c2ccc(Cl)cc2c1=O")
"19.1 µM (inactive)"

Lookup: What does the data say about its GI50? Entry: "O=C1Cc2cc3ccccc3nc2-c2ccccc2N1"
Found: 56 µM (inactive)

Lookup: And the next one, "O=[N+]([O-])C(Cl)=C/C(=C(\Cl)SCc1ccccc1)[N+](=O)[O-]" ?
Found: 18.9 µM (inactive)

Lookup: Now try "COC(=O)c1n[nH]c(C)c1/N=N/N(C)CCC#N" .
Found: 18.8 µM (inactive)

Lookup: Entry CC(C)OP(=O)(OC(C)C)C(Nc1cccc(C(F)(F)F)c1)c1ccccc1 (stereo unspecified) please
Found: 69.7 µM (inactive)

Lookup: Now the same for "CC(=O)c1c2c(cc3c1CC1(C3)Cc3cc4c(c(C(C)=O)c3C1)CCCC4)CCCC2"
Found: > 100 µM (inactive)
